Target: T1, Soluble IGF-1R (R&D Systems, Cat. # 391-GR/CF) (UniProt P08069 31-935, limits assumed)
T1 construct: extracellular domain; also called sIGF-1R; IGFR
Listing: Ratio over Background, IGF-1R of selected binders
Field format: number, assumed ratio over background, no unit text.

For orientation, consider the following solved cases.
- binder: "DYKDSSETAKMVTGTRDDPFYHKLSELVQGSAAAGAP (not shown: rest of the phage display fusion (remainder of E-Tag, phage coat protein)) [B6Hα-2-D8-IR]"
  Ratio over Background, IGF-1R (ratio over background): 3
- binder: "DYKDMNVFVSFYDAIDQLVCQRIGCAAAGAP (not shown: rest of the phage display fusion (remainder of E-Tag, phage coat protein)) [20E2A-4-G11-IGFR]"
  Ratio over Background, IGF-1R (ratio over background): 3.3
- binder: "DYKDLSCLAYSRHGIWRPSTDLGLGRSVGEGSVSTRWRGYDWFEAAAGAP (not shown: rest of the phage display fusion (remainder of E-Tag, phage coat protein)) [40F-4-D1-IGFR]"
  Ratio over Background, IGF-1R (ratio over background): 4.6
- binder: "DYKDCGAKMTGTPNDPFYHKLSELLQRGAAAGAP (not shown: rest of the phage display fusion (remainder of E-Tag, phage coat protein)) [B6Hα-3-E6-IR]"
  Ratio over Background, IGF-1R (ratio over background): 2.3

What does the data say about its Ratio over Background, IGF-1R? Entry: DYKDGCITAENGAGDPFYHKLSELGGCSAAAGAP (not shown: rest of the phage display fusion (remainder of E-Tag, phage coat protein)) [B6Hα-1-B3-IR] 3.2

// next record DYKDGHYFGSFYDAIDQLVAGMLPGAAAGAP (not shown: rest of the phage display fusion (remainder of E-Tag, phage coat protein)) [20E2A-3-A3-IGFR] 3
